Just for reference, paper PMC11834182 is where these values come from.

Molecular target: rPpAChE1 (Phlebotomus papatasi)
Experiment: biochemical
Parameters: gene AChE
OBSERVATION TYPE: pIC50
Answers are plain numbers, as −log10 of the molar value.

Report pIC50 from rPpAChE1 (Phlebotomus papatasi) testing of c1ccc2c(NCCCCCCCNc3c4c(nc5ccccc35)CCCC4)c3c(nc2c1)CCCC3
8.40

* * *

Biological target: rPpAChE1 (Phlebotomus papatasi)
Assay: biochemical
Design: gene AChE; PpAChE1 cDNA in pBlueBac4.5/V5-His, baculovirus expression in Sf21 cells, expression supernatant; species or system Sf21 (expression host)
OBSERVATION TYPE: IC50

Check rPpAChE1 (Phlebotomus papatasi) data and give IC50 for CCOC(=O)CC(SP(=O)(OC)OC)C(=O)OCC (stereo not shown) .
0.044 µM
